target_or_system: RIMS1, Q86UR5
Sequence (Q86UR5 584-692): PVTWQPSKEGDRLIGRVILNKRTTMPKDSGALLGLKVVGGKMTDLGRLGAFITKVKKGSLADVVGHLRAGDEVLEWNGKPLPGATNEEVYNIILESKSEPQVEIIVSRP
procedure_details: holdup assay
Design: key: below the threshold = too weak to quantify, mostly under pKd 3.1 to 4
experimental_conditions: plain residues with an end cap or a label only (N-terminal biotin on a linker: ttds)
measured_parameter: pKd

• SSRTRRETQL [HPV16-E6, P03126] = below the threshold
• SVWLRKETRV [CYSLTR2, Q9NS75] = below the threshold
• STLTIFETAL [ABCC4, O15439] = below the threshold
